Target: human renal renin (Homo sapiens, UniProt P00797)
Construct: human renal renin, free from acid proteolytic activity; from tissue
Sequence (P00797 67-406): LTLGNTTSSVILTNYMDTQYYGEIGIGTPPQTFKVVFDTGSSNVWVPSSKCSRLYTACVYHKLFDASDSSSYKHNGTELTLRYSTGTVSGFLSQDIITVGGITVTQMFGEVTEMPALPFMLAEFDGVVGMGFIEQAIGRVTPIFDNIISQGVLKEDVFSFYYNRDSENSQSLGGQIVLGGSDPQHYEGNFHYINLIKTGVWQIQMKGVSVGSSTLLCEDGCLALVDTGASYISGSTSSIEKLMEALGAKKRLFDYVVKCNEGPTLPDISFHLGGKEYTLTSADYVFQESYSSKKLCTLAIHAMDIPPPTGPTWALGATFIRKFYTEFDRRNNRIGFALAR
Assay: In vitro inhibition of human renal renin (angiotensin I formation measured by radioimmunoassay)
Format: biochemical
Conditions: human renal renin with human renin substrate (angiotensinogen), 37° C., pH 6.0
ATTRIBUTE_MEASURED: IC50 (nM)

I: CC(C)C[C@H](O)[C@H](O)[C@H](CC1CCCCC1)NC(=O)[C@H](Cc1c[nH]cn1)NC(=O)C1(N)Cc2ccccc2C1
II: CC(=O)N[C@@](C)(Cc1ccccc1)C(=O)N[C@@H](Cc1c[nH]cn1)C(=O)N[C@@H](CC1CCCCC1)[C@@H](O)[C@@H](O)CC(C)C
Form field 'greater IC50' accepts I or II ; which applies? Kindly give the label for the entry you pick.
I
